Assay: yeast display, Sf9 membrane polyspecificity reagent, FACS + sequencing; frameworks hold sequencing errors
readout_label: polyreactivity (PSR sort gate)

1) QVQLVESGGGLVQAGGSLRLSCAASGIIFIFYDMGWYRQAPGKERELVATITSGTNTDADSVKGRFTISRDNAKNTVYLQMNSLKPEDTAVYYCAAGFSPASQLDYWGQGTQVTVSS; low polyreactivity
2) QVQLVESGGGLVQAGGSLRISCAASGSIFRPNAMGRYRQAPGKERELVAAINTSDDSTYYADSVKGRFTISRDNAKNTVYLQMNSLKQEDTAVYYCAAEYYAYPYGDYYDYWGQGTQVTVSS; low polyreactivity

* * *

Experiment: yeast display, Sf9 membrane polyspecificity reagent, FACS + sequencing; frameworks hold sequencing errors
readout_label: polyreactivity (PSR sort gate)

Observe how each entry below is paired with its result.
1. QVQLVESGGGLVQAGGSLRLSCAASGSTFDQYAMGWYRQAPGKERELVAAISWSGGRTSYAVSVKGRFTISRDTAKNTVYLQMNSLKPEDTAVYYCAADLWFWGFHYPSRMDYWGQGTQVTVSS; high polyreactivity
2. QVQLQESGGGLVQAGGSLRLSCAASGSISRLDYMGWYRQASGKERELVAAIDNGSTTYYADSVKGRLTISRDNAKYTVYLQMNSLKPADTAVYFCAAVRGRGGTHAYWGQGTQVTVSG; low polyreactivity
3. QVQLVESGGGLVQAGGSLRLSCAASGSIFLYNAMGWYRQAPGKERELVAAISAIGSNTYYADSVKGRFTISRDNAKNTVYLQMNSLKPEDTAVYYCAAESVNVVNFGTRVGYWGQGTQVTVSS; high polyreactivity
4. QVQLVESGGGLVQAGGSLRLSCAASGFIFRYYAMGWYRQAPGKEREFVAGITGTGGSTYYADSVKGRFTISRDNAKNTVYLQMNSLKPEDTAVYYCAADLWYFSSRVRYGYWGQGTQVTVSS; high polyreactivity
5. QVQLVESGGGLVQAGGSLRLSCADSGRIFGYYTMGWSRQAPGKERELVAAITSSGSSTYYADSVKGRFTISRDNAKNTVYLQMNSLKPEDTAVYYCNARAYWRNEYWGQGTQVTVSS; high polyreactivity
6. LVQLVESGGGLVEAGGSLRLSWAASGIIFYYYAMGWYRQAPGKEREFVAGIRWSSGSTYYADSVKGRFTISRDNAKNTVYLQMNSLKPEDTAVYYCAAAYLSWYGGYYYWGQGTQVTVSS; low polyreactivity

Name the reported polyreactivity (PSR sort gate) value associated with the sequence QDQLVESGGGLVQAGGSLRLSCAASGRNFPGYVMGWYRQAPGKERELVAVITSNGGITYYADSVKGRFTISRDNAKNTVYLQMNSLKPEDTAVYYCAAYEIYYEFDSWGQGTLVTVSS low polyreactivity

Name the reported polyreactivity (PSR sort gate) value associated with the sequence QVQLVESGGGLVQAGGSLRLSCAASGSIFSLNAMGWYRPAPGKERELVAVINRSGTRTYYADSVKGRFTISRDNAKNTVYLQMNSLKPEDTAVYYCNAQPSSGSDAQNEYWGQGTQVTVSS high polyreactivity

Name the reported polyreactivity (PSR sort gate) value associated with the sequence QVQLLESGGGLVQAGGSLRLSCAASGLTYYYAMGWYRQAPGKERELVAAISYSGGRTNYADSVKGRFTISRDNAKNTVYLQMNSLKPEDTAVYFCAAVGPRTDYSGYRYYYWVQGTQVTVSS high polyreactivity

Name the reported polyreactivity (PSR sort gate) value associated with the sequence QVQLVESGGGLVQAGGSLRLSCAASGGNFTYNAMGWYRQAPGKERELVASISRGGGSTYYADSVKGRFTISRDNAKNTVYLQMNSLKPEDTAVYYCAASFIVGYYGYDYWGQGTQVTVSS low polyreactivity

Name the reported polyreactivity (PSR sort gate) value associated with the sequence QVHLVESGGGLVQAGGSLRLSCAASGFTFSTYTMGWYRQSPGKERELVAAIRRSGDSTYYADSVKGRFTISRDNAKNTVYLQMNSLKPVDTAVYYCNAVLYRFERFDYWGQGTQVTVSS high polyreactivity

Name the reported polyreactivity (PSR sort gate) value associated with the sequence QVQLVESGGGLVQAGGSLRLSCAASGFTFSRNAMGWYRQAPGKERELVAAISGRTGTTYYADSVKGRFTISRDNAKNTVYLQMNSLKTVDTAVYYCAKSSGRYRSDYWGQGTQVTVSS high polyreactivity

Name the reported polyreactivity (PSR sort gate) value associated with the sequence QVQLVESGGGLVQAGGSLRLSCAASGSILAYYAMGWYRQAPGKERELVADITSSGGITYYADSVKGRFTISRDNAKNTVYLQMNSLKPEDTAVYYCNADSWAIGGGSYPYDYWGQGTQVTVSS low polyreactivity

Name the reported polyreactivity (PSR sort gate) value associated with the sequence QVQLVESGGGLVQAGGSLRLSCAASGRIFSYYAMGWYRQAPGKERELVAAISRTGGTTYYADSVKGRFTISRDTAKNTVFLQMNSLKPEDTAVYYCNAVKAPYLRYDYWGQGTQVTVSS high polyreactivity

Name the reported polyreactivity (PSR sort gate) value associated with the sequence QVQHVESGGGLVQAGGSLRLSSAASGFIFILYAMGWYTQAPGKERELVAAISSCGTRTYYADSVKGRFTISRDNAKNTVYLQMISLKPEDTGVYYCNTAWRDYVARLGGVGYDYWGQGTQVTVSS high polyreactivity

Name the reported polyreactivity (PSR sort gate) value associated with the sequence QVQLVESGGGLVQAGGSLRLSCAASGSIFDSNAMGWYRQAPGKERELVAAINRSDASTYYADSVKGRFTISRDNAKNTDYLQMTSPQPEGTAVYYCGVEVYVYNVHIYDYWGQGTQVTVSS low polyreactivity

Name the reported polyreactivity (PSR sort gate) value associated with the sequence QVQLVESGGGLVQAGGSLRLSCAASGLIFADYTMGWYRQAPGKERELVAVITDGDSTYYADSVKGRFTISLDNAKNTVYLQMNTLKPEDTAVSYCAAESAGSFLDYYWAYGYWGQGTQVTVSS low polyreactivity

Name the reported polyreactivity (PSR sort gate) value associated with the sequence QVQLVESGGGLVQAGGSLRLSCAATGFIFSYYAMGWYRQAPGKERELVATITSGGSTYYADSVKGRFTISRDNAKNTVYLQMNSLKPEDTAVYYCNADWYWRVYWGQGTQVTVSS high polyreactivity

Name the reported polyreactivity (PSR sort gate) value associated with the sequence QVQLVESGGGLVQAGGSLRLSCAASGSTFTRNAMGWYRQAPGKERELVATISSGGSTNYADSVKGRFTISRDNAKNTVYLQMNSLKPEDTAVYYCAKRSLYRYYYWGQGTQVTVSS high polyreactivity

Name the reported polyreactivity (PSR sort gate) value associated with the sequence QVQLVESGGGLVQAGGSLRLSCAASGSTFPYYAMGWYRQAPGKERELVAAITSSASTYYADSVKGRFTISRDNAKNTVYLQLNSPKPEDTADYYCPVRSPYRLSPWRVGYWGQGTQVTVSS high polyreactivity

Name the reported polyreactivity (PSR sort gate) value associated with the sequence QVKLVESGGGLVQAGGSLRLSCGASGSIFRWYALGWYRQAPGKERELVAAIDYSGGSTYYADSVKGRFTISRDNAKNTVYLQMNSLKPEDTAVYYCAATAFYGGFLRYDYWGQGTQVTVSS low polyreactivity
